# experimentalSystem: endothelin receptor (membrane of smooth muscle tissue of porcine aorta) (Sus scrofa, UniProt Q29010)
# Construct: from tissue; host or cells: smooth muscle tissue of porcine aorta (membrane fraction)
# Sequence (Q29010 21-427): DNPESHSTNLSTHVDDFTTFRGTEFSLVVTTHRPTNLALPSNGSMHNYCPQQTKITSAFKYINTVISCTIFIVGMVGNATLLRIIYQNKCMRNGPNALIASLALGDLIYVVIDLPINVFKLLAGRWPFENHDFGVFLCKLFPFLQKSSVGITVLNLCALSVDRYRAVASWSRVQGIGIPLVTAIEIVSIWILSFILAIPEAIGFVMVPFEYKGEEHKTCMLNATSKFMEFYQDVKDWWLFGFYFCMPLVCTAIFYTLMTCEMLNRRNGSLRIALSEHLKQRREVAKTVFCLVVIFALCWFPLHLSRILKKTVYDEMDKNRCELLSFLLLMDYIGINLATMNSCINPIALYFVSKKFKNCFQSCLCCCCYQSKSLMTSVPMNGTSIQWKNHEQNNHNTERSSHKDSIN
# protocolDescription: Endothelin binding inhibition test (125I-endothelin-1, porcine aorta smooth muscle membrane)
# testSettings: 1.1 μM of the test compound; porcine aorta smooth muscle membrane; 25° C, 4 hours; read-out: 125I-endothelin-1 binding inhibition, Inhibition (%)
Numbered stars: 1 amine (or outer) side, 2 acyl side, 3 side chain; on linkers, the order of the positions; unused ones are H or OH. Square brackets hold non-standard residues; d marks the D form. Peptide text beside a SMILES is read from it. X4 = O=C1Nc2ccccc2C1C[C@@H](N[*:1])C(=O)[*:2]; dCya = N[C@H](CS(=O)(=O)O)C(=O)O; Nle = CCCC[C@H](N)C(=O)O
Can you tell me inhibition at 1.1 µM for the items I'm about to list?
One number for each entry, in %.

Below, each entry is followed by its recorded inhibition at 1.1 µM result.
{"compound": "CCCC[C@@H]1NC(=O)[C@@H](C(C)C)NC(=O)[C@@H]2CCCN2C(=O)[C@@H](CS(=O)(=O)O)NC(=O)[C@@H](Cc2c[nH]c3ccccc23)NC1=O [Example 5, cyclo(-DTrp-DCys(O3 Na)-Pro-DVal-Nle-)] (cyclo([Nle][dW][dCya]P[dV]))", "inhibition at 1.1 µM [%]": 81}
{"compound": "CC(C)C[C@@H]1NC(=O)[C@@H](C(C)C)NC(=O)[C@H](C)NC(=O)[C@@H](CS(=O)(=O)O)NC(=O)[C@@H](Cc2c[nH]c3ccccc23)NC1=O [Example 2, cyclo(-DTrp-DCys(O3 Na)-Ala-DVal-Leu-)] (cyclo(A[dV]L[dW][dCya]))", "inhibition at 1.1 µM [%]": 78}

Below: the item to evaluate.
What does the data say about its inhibition at 1.1 µM? Entry: CC(C)C[C@@H]1NC(=O)[C@@H](C(C)C)NC(=O)[C@@H]2CCCN2C(=O)[C@@H](CC(=O)O)NC(=O)[C@@H](CC2C(=O)Nc3ccccc32)NC1=O (stereo partly drawn) [Example 88, cyclo(-DTrp(O)-Dsp-Pro-DVal-Leu-)] (cyclo(L[X4][dD]P[dV]))
78
